- Tested on: SOX17 (endoderm marker) in RUES2-GLR cells
- METHOD_SUMMARY: DevTox GLR-Endo assay: decrease in percent SOX17-positive cells (AEID 3094, Sox17_dn)
- ASSAY_SETUP: Homo sapiens, read-out: ga (winning model), tcpl plot AEID3094, gain parameter of winning curve fit (log concentration, µM axis), hit calls only (converted)
Threshold-based label: AC50 under 20 µM gives True, AC50 not under 20 µM gives False.

| COMPOUND | LABEL |
| --- | --- |
| CN1CCN2c3ccccc3Cc3ccccc3C2C1 (stereo not drawn) | False |
| O=C(c1ccc(F)cc1)C1CCN(CCn2c(=O)[nH]c3ccccc3c2=O)CC1 | False |
| CN(C)CCOC(c1ccccc1)c1ccccc1 [Diphenhydramine] | False |
| Nc1ccn([C@@H]2O[C@H](CO)[C@@H](O)[C@@H]2O)c(=O)n1 | True |
| CS(=O)(=O)OCCCCOS(C)(=O)=O | False |
| NC(=O)N1c2ccccc2C=Cc2ccccc21 [Carbamazepine] | False |
| CC1=C(/C=C/C(C)=C/C=C/C(C)=C/C(=O)O)C(C)(C)CCC1 | True |
| CCCCc1oc2ccccc2c1C(=O)c1cc(I)c(OCCN(CC)CC)c(I)c1 | True |

Okay, next one:
Query: Is 20 µM strictly greater than the compound's reported AC50? compound: "COc1cccc2c1C(=O)c1c(O)c3c(c(O)c1C2=O)C[C@@](O)(C(=O)CO)C[C@@H]3O[C@H]1C[C@H](N)[C@H](O)[C@H](C)O1"
Result: True

* * *

- System: BRA (mesoderm marker) in RUES2-GLR cells
- METHOD_SUMMARY: DevTox GLR-Endo assay: increase in percent BRA-positive cells (AEID 3096, Bra_up)
- Type: cell-based, human
- ASSAY_SETUP: tcpl plot AEID3096, maximum median response
Structures can show the parent of a compound that is named as a salt.
PROPERTY_LABEL: MAX_MED (Percent Activity)
Hi! Could you send only the number? It should be in Percent Activity, unit omitted.

Solved cases (10 shown):
| COMPOUND | PROPERTY_LABEL | RECORDED_MEASUREMENT |
| --- | --- | --- |
| Nc1cccc2c1C(=O)N(C1CCC(=O)NC1=O)C2=O (centres unmarked) [Pomalidomide] | MAX_MED | 0.894 |
| Nc1nc2c(ncn2COCCO)c(=O)[nH]1 [Acyclovir] | MAX_MED | 1.09 |
| NC(=O)N1c2ccccc2C=Cc2ccccc21 [Carbamazepine] | MAX_MED | 1.04 |
| OB(O)O [Boric acid] | MAX_MED | 0.83 |
| O=P1(N(CCCl)CCCl)NCCCO1 (centres unmarked) [Cyclophosphamide] | MAX_MED | 0.897 |
| NC(=O)NO [Hydroxyurea] | MAX_MED | 0.69 |
| O=C(O)c1cccnc1 [Niacin, Nicotinic acid] | MAX_MED | 0.865 |
| [H]/N=C(/NCCCCC)N/N=C/c1c[nH]c2ccc(OC)cc12 [Tegaserod Maleate] | MAX_MED | 2.57 |
| C[C@](N)(Cc1ccc(O)c(O)c1)C(=O)O [Methyldopa] | MAX_MED | 0.851 |
| O=C1NS(=O)(=O)c2ccccc21 [Saccharin] | MAX_MED | 1.04 |

Query: May I ask what MAX_MED has been recorded for O=C1CCC(N2C(=O)c3ccccc3C2=O)C(=O)N1 (centres unmarked) [Thalidomide] ?
Result: 0.968

Query: May I ask what MAX_MED has been recorded for "O=C1NC(=O)C(c2ccccc2)(c2ccccc2)N1" ?
Result: 0.909

* * *

- Test system: RUES2-GLR cells
- METHOD_SUMMARY: DevTox GLR-Endo assay: decrease in total cell count, cytotoxicity (AEID 3098, CellCount_dn)
- ASSAY_SETUP: Table S2, 48 h exposure
Starred links: 1 amine or outer side, 2 acyl side, 3 side chain; linkers in the order of their positions; H or OH if unused. Positions of bridges follow the written chain, without caps; N, C: chain ends. Non-standard residues stand in square brackets, D forms with d. Residues, ends and D or L forms follow the SMILES beside them. Chains are numbered I, II in the order given. Actinocin(9to1) = Cc1c2oc3c(C)ccc(C(=O)[*:1])c3nc-2c(C(=O)[*:2])c(N)c1=O; NMeV = CN[C@H](C(=O)O)C(C)C; Sar = CNCC(=O)O
Quick list: Cell Count ACC per entry.
Hi! Could you send only the number? It should be in µM, unit omitted.

Solved cases (2 shown):
| COMPOUND | PROPERTY_LABEL | UNITS | RECORDED_MEASUREMENT |
| --- | --- | --- | --- |
| Nc1cccc2c1CN(C1CCC(=O)NC1=O)C2=O (stereo not shown) [Lenalidomide] | Cell Count ACC | µM | 0.1174 |
| Cc1c2oc3c(C)ccc(C(=O)N[C@@H]4C(=O)N[C@H](C(C)C)C(=O)N5CCC[C@H]5C(=O)N(C)CC(=O)N(C)[C@@H](C(C)C)C(=O)O[C@@H]4C)c3nc-2c(C(=O)N[C@@H]2C(=O)N[C@H](C(C)C)C(=O)N3CCC[C@H]3C(=O)N(C)CC(=O)N(C)[C@@H](C(C)C)C(=O)O[C@@H]2C)c(N)c1=O [Actinomycin D] (I: T[dV]P[Sar][NMeV] / II: T[dV]P[Sar][NMeV]; ester I:1-I:C, II:1-II:C; linker I:N-II:N via Actinocin(9to1)) | Cell Count ACC | µM | 0.0003574 |

Turning now to a further record.
Query: May I ask what Cell Count ACC has been recorded for Nc1cccc2c1C(=O)N(C1CCC(=O)NC1=O)C2=O (stereo not shown) [Pomalidomide] ?
Result: 0.27

* * *

- Test system: SOX17 (endoderm marker) in RUES2-GLR cells
- METHOD_SUMMARY: DevTox GLR-Endo assay: decrease in percent SOX17-positive cells (AEID 3094, Sox17_dn)
- ASSAY_SETUP: read-out: DevTox-GLR Endo AC50; SOX17 half-maximal activity concentration, 48 h exposure
Quick list: AC50 per entry.
Hi! Could you send only the number? It should be in µM, unit omitted.

Solved cases (3 shown):
| MOLECULE | UNITS | AC50 |
| --- | --- | --- |
| C[C@](N)(Cc1ccc(O)c(O)c1)C(=O)O [Methyldopa] | µM | 113 |
| COc1ccc2nc([S@@+]([O-])Cc3ncc(C)c(OC)c3C)[nH]c2c1 [Esomeprazole] | µM | 33.8 |
| Oc1cc(O)c2c(c1)O[C@H](c1ccc(O)c(O)c1)[C@@H](O)C2 [Cianidanol] | µM | 92.9 |

Turning now to a further record.
Query: May I ask what AC50 has been recorded for "CC1=C(/C=C/C(C)=C/C=C/C(C)=C\C(=O)O)C(C)(C)CCC1" ?
Result: 0.16

* * *

- Tested on: SOX17 (endoderm marker) in RUES2-GLR cells
- METHOD_SUMMARY: DevTox GLR-Endo assay: increase in percent SOX17-positive cells (AEID 3093, Sox17_up)
- Type: cell-based, human
- ASSAY_SETUP: tcpl plot AEID3093, maximum mean response
Threshold-based label: MAX_MEAN under 8 Percent Activity gives Yes, MAX_MEAN not under 8 Percent Activity gives No.

Recorded results for 6 molecules are shown here.
| MOLECULE | LABEL |
| --- | --- |
| CC(O)CO (stereo not shown) | No |
| CC1=C(/C=C/C(C)=C/C=C/C(C)=C\C(=O)O)C(C)(C)CCC1 | Yes |
| OB(O)O | Yes |
| NC(=O)NO [Hydroxyurea] | No |
| CCCCC(CC)COC(=O)c1ccccc1C(=O)O (stereo not shown) | Yes |
| C[C@@H]1C[C@H]2[C@@H]3CCC4=CC(=O)C=C[C@]4(C)[C@@]3(F)[C@@H](O)C[C@]2(C)[C@@]1(O)C(=O)CO | Yes |

Okay, next one:
Query: Is 8 Percent Activity strictly greater than the molecule's reported MAX_MEAN? molecule: C=CC(N)=O [Acrylamide]
Result: Yes

* * *

Quick list: Cell Count ACC per entry.
- Test system: RUES2-GLR cells
- METHOD_SUMMARY: in vitro
- ASSAY_SETUP: human, 48 h
Hi! Could you send only the number? It should be in µM, unit omitted.

Solved cases (5 shown):
| SMILES_ENTRY | PROPERTY_LABEL | RECORDED_MEASUREMENT |
| --- | --- | --- |
| CC/C(=C(/CC)c1ccc(O)cc1)c1ccc(O)cc1 | Cell Count ACC | 0.5959 |
| COc1cc2ncnc(Nc3ccc(F)c(Cl)c3)c2cc1OCCCN1CCOCC1 | Cell Count ACC | 5.08 |
| O=C(c1ccc(F)cc1)C1CCN(CCn2c(=O)[nH]c3ccccc3c2=O)CC1 | Cell Count ACC | 33.5346 |
| CS(=O)(=O)OCCCCOS(C)(=O)=O | Cell Count ACC | 5.795 |
| Nc1ccn([C@@H]2O[C@H](CO)[C@@H](O)[C@@H]2O)c(=O)n1 | Cell Count ACC | 0.05231 |

Turning now to a further record.
Query: # get_value(readout= Cell Count ACC, system= RUES2-GLR cells) for "COc1ccc2nc([S@@+]([O-])Cc3ncc(C)c(OC)c3C)[nH]c2c1"
Result: 28.1982

The origin of these recorded values is paper PMC9321663.
